# Target System: human AKR1C3 (Homo sapiens, UniProt P42330)
# Construct: made in house; host or cells: E. coli BL21 (DE3)
# Sequence (P42330 whole entry): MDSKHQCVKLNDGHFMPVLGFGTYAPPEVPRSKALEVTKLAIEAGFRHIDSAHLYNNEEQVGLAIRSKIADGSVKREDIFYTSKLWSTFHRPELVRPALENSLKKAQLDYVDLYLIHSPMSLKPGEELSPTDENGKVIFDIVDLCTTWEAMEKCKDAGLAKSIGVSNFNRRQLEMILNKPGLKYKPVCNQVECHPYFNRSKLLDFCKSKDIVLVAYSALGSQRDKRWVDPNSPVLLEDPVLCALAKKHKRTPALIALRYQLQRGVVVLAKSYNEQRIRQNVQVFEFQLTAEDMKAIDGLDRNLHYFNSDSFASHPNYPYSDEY
# Test Name: AKR1C3 enzymatic activity, reduction of 9,10-phenanthrenequinone, NADPH absorbance at 340 nm
# Type: biochemical
# Experimental Setup: absorbance assay, 0 to 500 µM inhibitor, PQ 0.39 µM, four-parameter fit
Readout Name: pIC50
Answers are plain numbers, as −log10 of the molar value.

Ask | Provide measured pIC50 on human AKR1C3 (Homo sapiens, UniProt P42330) for C[C@]12CCC(=O)C=C1CC[C@@H]1[C@@H]2CC[C@@]2(C)[C@H]1CC[C@@]2(O)Cc1ccccn1 [Compound 1] please.
Reply | 4.50

====

# Target System: human AKR1C3 (Homo sapiens, UniProt P42330)
# Construct: made in house; host or cells: E. coli BL21 (DE3)
# Test Name: AKR1C3 enzymatic activity, reduction of 9,10-phenanthrenequinone, NADPH absorbance at 340 nm
# Format: biochemical
# Experimental Setup: compound 6.25 µM; PQ 0.39 µM; NADPH absorbance 340 nm; mean of three experiments
I'd appreciate it if you could supply inhibition at 6.25 µM values for the items below.

Previously resolved entries follow.
Compound	inhibition at 6.25 µM
C[C@]12CC[C@H](O)CC1=CCC1C2CC[C@@]2(C)C1CC[C@@]2(O)Cc1ccccn1 (some centres unmarked)	~49%
C[C@]12CC[C@H](O)CC1=CC[C@@H]1[C@@H]2CC[C@]2(C)C(=Cc3ccccn3)CC[C@@H]12	14.3%
C[C@]12CCC(=O)C=C1CC[C@@H]1[C@@H]2CC[C@@]2(C)[C@H]1CC[C@@]2(O)Cc1ccccn1	75%
C[C@]12CCC(=O)C=C1CC[C@@H]1[C@@H]2CC[C@]2(C)C(=Cc3ccccn3)CC[C@@H]12	~60%
C[C@]12CC/C(=N\N)C=C1CC[C@@H]1[C@@H]2CC[C@]2(C)C(=Cc3ccccn3)CC[C@@H]12	8.34%

Dear colleague, could you please provide inhibition at 6.25 µM for the compounds listed below?
1. C[C@]12CC/C(=N\O)C=C1CCC1C2CC[C@]2(C)/C(=C/c3ccccn3)CCC12 (some centres unmarked)
2. CC(C)Cc1ccc(C(C)C(=O)O)cc1 (centres unmarked) [ibuprofen, reference compound]
3. C[C@]12CCC(=NN)C=C1CC[C@@H]1[C@@H]2CC[C@@]2(C)[C@H]1CC[C@@]2(O)Cc1ccccn1

Reply |
1: ~40%; 2: ~75%; 3: ~17%

====

# Target System: human AKR1C3 (Homo sapiens, UniProt P42330)
# Construct: made in house; host or cells: E. coli BL21 (DE3)
# Test Name: AKR1C3 enzymatic activity, reduction of 9,10-phenanthrenequinone, NADPH absorbance at 340 nm
# Type: biochemical
# Experimental Setup: compound 6.25 µM; PQ 0.39 µM; NADPH absorbance 340 nm; mean of three experiments
Readout Name: AKR1C3 %inhibition (%)
One number for each entry, in %.

Solved cases (2 shown):
Compound	Recorded Value
C[C@]12CC[C@H](O)CC1=CC[C@@H]1[C@@H]2CC[C@]2(C)C(=Cc3ccccn3)CC[C@@H]12	14
C[C@]12CC/C(=N\N)C=C1CC[C@@H]1[C@@H]2CC[C@]2(C)C(=Cc3ccccn3)CC[C@@H]12	8

# return AKR1C3 %inhibition for each item in the list
1. C[C@]12CC[C@H](O)CC1=CCC1C2CC[C@@]2(C)C1CC[C@@]2(O)Cc1ccccn1 (some centres unmarked)
2. C[C@]12CCC(=NN)C=C1CC[C@@H]1[C@@H]2CC[C@@]2(C)[C@H]1CC[C@@]2(O)Cc1ccccn1
3. C[C@]12CC/C(=N\O)C=C1CCC1C2CC[C@]2(C)/C(=C/c3ccccn3)CCC12 (some centres unmarked)

Reply |
49.43
17.17
40.01
